Biological target: PRMT1 (Homo sapiens, UniProt Q99873)
Sequence (Q99873 whole entry): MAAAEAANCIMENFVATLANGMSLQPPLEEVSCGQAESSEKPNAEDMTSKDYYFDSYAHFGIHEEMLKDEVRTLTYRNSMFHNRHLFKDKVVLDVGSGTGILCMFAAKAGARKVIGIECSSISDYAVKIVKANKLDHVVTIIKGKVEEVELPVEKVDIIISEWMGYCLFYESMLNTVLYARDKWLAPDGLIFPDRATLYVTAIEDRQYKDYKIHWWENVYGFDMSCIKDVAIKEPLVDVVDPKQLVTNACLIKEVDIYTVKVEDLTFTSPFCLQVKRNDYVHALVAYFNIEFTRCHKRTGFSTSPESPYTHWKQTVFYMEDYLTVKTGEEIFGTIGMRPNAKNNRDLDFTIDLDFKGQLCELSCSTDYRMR
Experiment: AlphaLISA PRMT1 activity assay (H4R3me)
Settings: read-out: % PRMT1 residual activity at 100 uM
measure: remaining activity at 100 µM (%)

{"compound": "N=C(N)NCCCCC(=O)Nc1ccc2cc(C(=O)O)cc(O)c2c1", "target or system": "PRMT1 (Homo sapiens, UniProt Q99873)", "units symbol": "%", "measured number": 69.7}
{"compound": "N=C(N)NCCCCCC(=O)Nc1ccc2cc(C(=O)O)cc(O)c2c1", "target or system": "PRMT1 (Homo sapiens, UniProt Q99873)", "units symbol": "%", "measured number": 65.9}
{"compound": "COC(=O)c1cc(O)c2cc(NC(=O)[C@@H](N)CCSC)ccc2c1", "target or system": "PRMT1 (Homo sapiens, UniProt Q99873)", "units symbol": "%", "measured number": 92.1}
{"compound": "COC(=O)c1cc(O)c2cc(NC(=O)[C@@H](N)CCCNC(=N)N)ccc2c1 [11c]", "target or system": "PRMT1 (Homo sapiens, UniProt Q99873)", "units symbol": "%", "measured number": 34.2}
{"compound": "CN(C)C(=N)NCCCCC(=O)Nc1ccc2cc(C(=O)O)cc(O)c2c1", "target or system": "PRMT1 (Homo sapiens, UniProt Q99873)", "units symbol": "%", "measured number": 36.8}
{"compound": "COC(=O)c1cc(O)c2cc(NC(=O)NCCCNC(=N)N)ccc2c1", "target or system": "PRMT1 (Homo sapiens, UniProt Q99873)", "units symbol": "%", "measured number": 0.4}
{"compound": "O=C(NCCCn1ccnc1)Nc1ccc2cc(C(=O)O)cc(O)c2c1", "target or system": "PRMT1 (Homo sapiens, UniProt Q99873)", "units symbol": "%", "measured number": 36.9}
{"compound": "COC(=O)c1cc(O)c2cc(NC(=O)CCCCCCNC(=N)N)ccc2c1", "target or system": "PRMT1 (Homo sapiens, UniProt Q99873)", "units symbol": "%", "measured number": -0.49}

a: CNC(=N)NCCCNC(=O)Nc1ccc2cc(C(=O)OC)cc(O)c2c1
b: COC(=O)c1cc(O)c2cc(NC(=O)CCCCNC3=NCCN3)ccc2c1
Could you point out whether the larger remaining activity at 100 µM belongs to a or to b ? Kindly state the label of the option you pick.
b
